Entry source: patent US20220409727A1

# ASSAY COMMENT: Luminescence quantum yield measurements
# Type: physicochemical
# Set-up: key: fraction, relative to [Ru(bipy)3]Cl2 reference in CH3CN (Φem=5.9%)
# STUDY CONDITIONS: CH3CN, room temperature, excitation at 355 nm
The following compounds are listed with their measured ϕem (Luminescence Quantum Yield) values.

STRUCTURE SMILES STRING: COc1ccc(/C=C/c2ccnc(-c3cc(/C=C/c4ccc(OC)cc4)ccn3)c2)cc1.COc1ccc(/C=C/c2ccnc(-c3cc(/C=C/c4ccc(OC)cc4)ccn3)c2)cc1.F[P-](F)(F)(F)(F)F.F[P-](F)(F)(F)(F)F.[Ru+2].c1ccc(-c2ccccn2)nc1
ϕem (Luminescence Quantum Yield): 0.014
//
STRUCTURE SMILES STRING: CN(C)c1ccc(/C=C/c2ccnc(-c3cc(/C=C/c4ccc(N(C)C)cc4)ccn3)c2)cc1.F[P-](F)(F)(F)(F)F.F[P-](F)(F)(F)(F)F.[Ru+2].c1ccc(-c2ccnc3c2ccc2c(-c4ccccc4)ccnc23)cc1.c1ccc(-c2ccnc3c2ccc2c(-c4ccccc4)ccnc23)cc1
ϕem (Luminescence Quantum Yield): 0.006
//
STRUCTURE SMILES STRING: CN(C)c1ccc(/C=C/c2ccnc(-c3cc(/C=C/c4ccc(N(C)C)cc4)ccn3)c2)cc1.F[P-](F)(F)(F)(F)F.F[P-](F)(F)(F)(F)F.[Ru+2].c1cnc2c(c1)ccc1cccnc12.c1cnc2c(c1)ccc1cccnc12
ϕem (Luminescence Quantum Yield): 0.004

---

# Tested on: human glioblastoma astrocytoma (U373) cells
# ASSAY COMMENT: (Photo-)cytotoxicity on 2D cell monolayers, resazurin assay, U373
# STUDY CONDITIONS: U373, dark vs 480 nm (10 min, 3.1 J/cm^2)
The following molecules are listed with their measured PI (480 nm) values.

MOLECULE: CN(C)c1ccc(/C=C/c2ccnc(-c3cc(/C=C/c4ccc(N(C)C)cc4)ccn3)c2)cc1.F[P-](F)(F)(F)(F)F.F[P-](F)(F)(F)(F)F.[Ru+2].c1cnc2c(c1)ccc1cccnc12.c1cnc2c(c1)ccc1cccnc12 [Compound 8]
ASSAY TARGET: human glioblastoma astrocytoma (U373) cells
PI (480 nm): >8.5

MOLECULE: CN(C)c1ccc(/C=C/c2ccnc(-c3cc(/C=C/c4ccc(N(C)C)cc4)ccn3)c2)cc1.CN(C)c1ccc(/C=C/c2ccnc(-c3cc(/C=C/c4ccc(N(C)C)cc4)ccn3)c2)cc1.CN(C)c1ccc(/C=C/c2ccnc(-c3cc(/C=C/c4ccc(N(C)C)cc4)ccn3)c2)cc1.F[P-](F)(F)(F)(F)F.F[P-](F)(F)(F)(F)F.[Ru+2] [Compound 2]
ASSAY TARGET: human glioblastoma astrocytoma (U373) cells
PI (480 nm): >2.0

MOLECULE: CN(C)c1ccc(/C=C/c2ccnc(-c3cc(/C=C/c4ccc(N(C)C)cc4)ccn3)c2)cc1.CN(C)c1ccc(/C=C/c2ccnc(-c3cc(/C=C/c4ccc(N(C)C)cc4)ccn3)c2)cc1.F[P-](F)(F)(F)(F)F.F[P-](F)(F)(F)(F)F.[Ru+2].c1ccc(-c2ccccn2)nc1 [Compound 4]
ASSAY TARGET: human glioblastoma astrocytoma (U373) cells
PI (480 nm): >7.0

MOLECULE: CN(C)c1ccc(/C=C/c2ccnc(-c3cc(/C=C/c4ccc(N(C)C)cc4)ccn3)c2)cc1.F[P-](F)(F)(F)(F)F.F[P-](F)(F)(F)(F)F.[Ru+2].c1ccc(-c2ccnc3c2ccc2c(-c4ccccc4)ccnc23)cc1.c1ccc(-c2ccnc3c2ccc2c(-c4ccccc4)ccnc23)cc1 [Compound 10]
ASSAY TARGET: human glioblastoma astrocytoma (U373) cells
PI (480 nm): 7.6

MOLECULE: COc1ccc(/C=C/c2ccnc(-c3cc(/C=C/c4ccc(OC)cc4)ccn3)c2)cc1.F[P-](F)(F)(F)(F)F.F[P-](F)(F)(F)(F)F.[Ru+2].c1cnc2c(c1)ccc1cccnc12.c1cnc2c(c1)ccc1cccnc12 [Compound 9]
ASSAY TARGET: human glioblastoma astrocytoma (U373) cells
PI (480 nm): >40.0

MOLECULE: C=CC1=C(C)c2cc3[nH]c(cc4nc(cc5[nH]c(cc1n2)c(C)c5CCC(=O)O)C(CCC(=O)O)=C4C)c(C)c3C=C [PpIX, Protoporphyrin IX, reference compound]
ASSAY TARGET: human glioblastoma astrocytoma (U373) cells
PI (480 nm): 7.8

MOLECULE: CN(C)c1ccc(/C=C/c2ccnc(-c3cc(/C=C/c4ccc(N(C)C)cc4)ccn3)c2)cc1.F[P-](F)(F)(F)(F)F.F[P-](F)(F)(F)(F)F.[Ru+2].c1ccc(-c2ccccn2)nc1.c1ccc(-c2ccccn2)nc1 [Compound 6]
ASSAY TARGET: human glioblastoma astrocytoma (U373) cells
PI (480 nm): >12.0

MOLECULE: COc1ccc(/C=C/c2ccnc(-c3cc(/C=C/c4ccc(OC)cc4)ccn3)c2)cc1.COc1ccc(/C=C/c2ccnc(-c3cc(/C=C/c4ccc(OC)cc4)ccn3)c2)cc1.COc1ccc(/C=C/c2ccnc(-c3cc(/C=C/c4ccc(OC)cc4)ccn3)c2)cc1.F[P-](F)(F)(F)(F)F.F[P-](F)(F)(F)(F)F.[Ru+2] [Compound 3]
ASSAY TARGET: human glioblastoma astrocytoma (U373) cells
PI (480 nm): >2.4
